TARGET_OF_ASSAY: Mouse ACVR2A (mouse, UniProt P27038 20-135, limits assumed); also: test concentration or dose not given here
Sequence (P27038 20-135 limits assumed): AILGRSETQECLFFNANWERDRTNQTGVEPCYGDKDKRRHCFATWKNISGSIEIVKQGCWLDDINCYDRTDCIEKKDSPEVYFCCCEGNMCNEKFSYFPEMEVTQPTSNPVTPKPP
ASSAY_SUMMARY: ELISA
Criterion: optical density strictly less than 3 OD. Met: 1 (yes). Not met: 0 (no).

Decide: optical density of 370_G06 (antibody, V domains shown) VH: EVQLLESGGGLVQPGGSLRLSCAASGFTFSDYGMHWVRQAPGKGLEWVSSINYNGGYTSYADSVKGRFTISRDNSKNTLYLQMNSLRAEDTAVYYCARSANWHDTALDYWGQGTLVTVSS VL: DIQMTQSPSSLSASVGDRVTITCRASQSILSYVNWYQQKPGKAPKLVIYAATSRASGVPSRFSGSGSGTDFTLTISSLQPEDFATYYCQQSDNTPLTFGGGTKVEIK strictly below 3 OD?
1 (yes)

Lab log: compare recorded optical density with 3 OD; is it strictly lower for 367_C05 (antibody, V domains shown) VH: EVQLLESGGGLVQPGGSLRLSCAASGFTFDDYGMNWVRQAPGKGLEWVSSINYNGGYTGYADSVKGRFTISRDNSKNTLYLQMNSLRAEDTAVYYCARSANWHDTHLDYWGQGTLVTVSS VL: DIQMTQSPSSLSASVGDRVTITCRASQSILSYVNWYQQKPGKAPKLVIYAATSRHSGVPSRFSGSGSGTDFTLTISSLQPEDFATYYCQQSYDLPLTFGGGTKVEIK ?
1 (yes)

Strictly below 3 OD in optical density? 370_A03 (antibody, V domains shown) VH: EVQLLESGGGLVQPGGSLRLSCAASGFTFSSYSMNWVRQAPGKGLEWVSNINYNGGYTSYADSVKGRFTISRDNSKNTLYLQMNSLRAEDTAVYYCARSANWHDTALDYWGQGTLVTVSS VL: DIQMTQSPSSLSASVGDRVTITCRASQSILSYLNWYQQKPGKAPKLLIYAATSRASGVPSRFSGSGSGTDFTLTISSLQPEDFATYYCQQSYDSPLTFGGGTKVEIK
0 (no)

In plain terms, does 370_C09 (antibody, V domains shown) VH: EVQLLESGGGLVQPGGSLRLSCAASGFTFDSYGMNWVRQAPGKGLEWVSGINYNGGYTSYADSVKGRFTISRDNSKNTLYLQMNSLRAEDTAVYYCARSANWHDTALDYWGQGTLVTVSS VL: DIQMTQSPSSLSASVGDRVTITCRASQSIISYLNWYQQKPGKAPKLVIYAATSLASGVPSRFSGSGSGTDFTLTISSLQPEDFATYYCQQSYSTPLTFGGGTKVEIK come in under 3 OD for optical density?
1 (yes)

Strictly below 3 OD in optical density? 372_F03 (antibody, V domains shown) VH: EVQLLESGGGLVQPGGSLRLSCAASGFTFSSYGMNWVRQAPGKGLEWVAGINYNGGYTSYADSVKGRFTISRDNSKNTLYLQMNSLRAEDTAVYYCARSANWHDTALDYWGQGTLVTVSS VL: DIQMTQSPSSLSASVGDRVTITCRASQSILSYLNWYQQKPGKAPKLVIYAATSRASGVPSRFSGSGSGTDFTLTISSLQPEDFATYYCQQSYDTPLTFGGGTKVEIK
0 (no)

Strictly below 3 OD: is that where optical density of 371_A08 (antibody, V domains shown) VH: EVQLLESGGGLVQPGGSLRLSCAASGFTFSSYGMHWVRQAPGKGLEWVSSINYNGGYTSYADSVKGRFTISRDNSKNTLYLQMNSLRAEDTAVYYCARSANWHDTALDYWGQGTLVTVSS VL: DIQMTQSPSSLSASVGDRVTITCRASQSILSYLNWYQQKPGKAPKLVIYAATSRASGVPSRFSGSGSGTDFTLTISSLQPEDFATYYCQQSYELPLTFGGGTKVEIK sits?
1 (yes)

Report whether reported optical density is lower than 3 OD (strictly) for 368_B01 (antibody, V domains shown) VH: EVQLLESGGGLVQPGGSLRLSCAASGFTFSSYGMNWVRQAPGKGLEWVSGINYNSGYKSYADSVKGRFTISRDNSKNTLYLQMNSLRAEDTAVYYCARSANWHDTALDYWGQGTLVTVSS VL: DIQMTQSPSSLSASVGDRVTITCRASQSISSYLNWYQQKPGKAPKLLIYAATSRASGVPSRFSGSGSGTDFTLTISSLQPEDFATYYCQQSYETPLTFGGGTKVEIK
1 (yes)

Given 370_D11 (antibody, V domains shown) VH: EVQLLESGGGLVQPGGSLRLSCAASGFTFDSYSMNWVRQAPGKGLEWVSGINYNGGYTGYADSVKGRFTISRDNSKNTLYLQMNSLRAEDTAVYYCARSANWHDTALDYWGQGTLVTVSS VL: DIQMTQSPSSLSASVGDRVTITCRASQSIVSYLNWYQQKPGKAPKLLIYAATSRASGVPSRFSGSGSGTDFTLTISSLQPEDFATYYCQQSYDTPLTFGGGTKVEIK , is recorded optical density strictly lower than 3 OD?
1 (yes)

Report whether reported optical density is lower than 3 OD (strictly) for 369_F10 (antibody, V domains shown) VH: EVQLLESGGGLVQPGGSLRLSCAASGFTFDSYGMNWVRQAPGKGLEWVSNINYNSGYKSYADSVKGRFTISRDNSKNTLYLQMNSLRAEDTAVYYCARSANWHDTALDYWGQGTLVTVSS VL: DIQMTQSPSSLSASVGDRVTITCRASQSIVTYLNWYQQKPGKAPKLLIYAVTSRASGVPSRFSGSGSGTDFTLTISSLQPEDFATYYCQQSYDLPLTFGGGTKVEIK
0 (no)
